pIC50: −log10 of the molar value.
Below: molecules with pIC50 recorded for TACE (Homo sapiens (Human), UniProt P78536) in separate published works.

>  <molecule>
Cc1cccn(CC2(c3ccc(-c4ccncc4)cc3)NC(=O)NC2=O)c1=O (stereo not shown)

>  <pIC50>
> 7.00

$$$$
>  <molecule>
CC(C)(C)c1ccc2c(c1)CN(S(=O)(=O)CC(COCc1ccccc1)N(O)C=O)CC2 (stereo not shown)

>  <pIC50>
< 5.30

$$$$
>  <molecule>
CC(C)(C)OC(=O)N1CCC[C@@H]1[C@@H](CS(=O)(=O)N1CCc2cc(Cl)c(Cl)cc2C1)N(O)C=O (racemic)

>  <pIC50>
6.43

$$$$
>  <molecule>
COc1cc(N2CCN(C(=O)CC[C@H]3NC(=O)NC3=O)C[C@@H]2C)cc(OC)c1Cl

>  <pIC50>
< 7.00

$$$$
>  <molecule>
O=C1NC(=O)C(Cn2cccc(Br)c2=O)(c2ccc(Cc3ccccc3)cc2)N1 (stereo not shown)

>  <pIC50>
> 7.00

$$$$
>  <molecule>
COc1cccc(N2CCN(C(=O)CCC3(C4CC4)NC(=O)NC3=O)CC2)c1 (stereo not shown)

>  <pIC50>
< 7.00

$$$$
>  <molecule>
COc1cccc(C2(Cn3cccc(C)c3=O)NC(=O)NC2=O)c1 (stereo not shown)

>  <pIC50>
> 7.00

$$$$

###

Below: compounds with IC50 recorded for TACE (Homo sapiens (Human), UniProt P78536) in separate published works.
endpoint name: IC50

>  <compound>
C=C(C)c1cccn(CC2(c3ccc(OC)cc3)NC(=O)NC2=O)c1=O (stereo not drawn)

>  <observed>
100 to 1000 nM

$$$$
>  <compound>
CC#CCOc1ccc(S(=O)(=O)Oc2c(C(=O)NO)cc(C(C)C)cc2C(C)C)cc1

>  <observed>
361 nM

$$$$
>  <compound>
Cc1cccn(CC2(c3ccc(CCC4CCCCC4)cc3)NC(=O)NC2=O)c1=O (stereo not drawn)

>  <observed>
100 to 1000 nM

$$$$
>  <compound>
COc1ccccc1Oc1ccc(C2(Cn3cccc(C)c3=O)NC(=O)NC2=O)cc1 (stereo not drawn)

>  <observed>
< 100 nM

$$$$
>  <compound>
CC(C)(CS(=O)(=O)N1CCc2ccc(Br)cc2C1)N(O)C=O

>  <observed>
> 5000 nM

$$$$
>  <compound>
CC#CCOc1ccc(S(=O)(=O)CC2(C(=O)NO)CCN(C(=O)C3(C)COC(C)(C)OC3)CC2)cc1

>  <observed>
12 nM

$$$$
>  <compound>
O=CN(O)[C@@H](CS(=O)(=O)N1CCc2ccc(Cl)cc2C1)[C@H]1CCCO1

>  <observed>
389 nM

$$$$
>  <compound>
COc1cc(N2CCN(C(=O)CC[C@H]3NC(=O)NC3=O)C[C@@H]2C)ccc1Cl

>  <observed>
> 100 nM

$$$$
>  <compound>
COc1cc(N2CCN(C(=O)CC[C@H]3NC(=O)NC3=O)CC2)cc(OC)c1Cl

>  <observed>
> 100 nM

$$$$
>  <compound>
O=CN(O)C(CS(=O)(=O)N1CCc2ccc(F)cc2C1)C1CCCC1 (stereo not drawn)

>  <observed>
79 nM

$$$$
>  <compound>
O=C(NO)[C@H]1CN(S(=O)(=O)NC(=O)N2CCCCC2)CCN1S(=O)(=O)c1cc(F)c(Oc2ccc(Cl)cc2)c(F)c1

>  <observed>
50 to 1000 nM

$$$$
>  <compound>
CCC(CC)C(CS(=O)(=O)N1CCc2cc(C(C)C)ccc2C1)N(O)C=O (stereo not drawn)

>  <observed>
> 5000 nM

$$$$
